Every entry's value here was drawn from patent US20030236190A1.

# target_under_test: T1, Insulin receptor prepared according to Bass et al., 1996: soluble human insulin receptor-immunoglobulin heavy … (human, UniProt P06213 28-956)
# T1 construct: extracellular domain; Eu3+-labelled in TR-FRET; also called IR; sIR-Fc; not shown: immunoglobulin heavy chain constant domains that replace the transmembrane and i
# test: phage ELISA vs milk
Positions of bridges follow the written chain, without caps; N, C: chain ends. No end group written: not given here.
Note to self: values exactly at 1 fold are label 1. So Ratio over Background at or above 1 fold is label 1, below is label 0.

{"columns": ["binder", "class_label"],
 "data": [
  ["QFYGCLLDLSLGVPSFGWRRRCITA (disulfide 5-22 (inferred)) [20C-3-A4-IGFR]", "label 1"],
  ["PGTDLGFYQALRCVVIQGACD (not fully specified (bridges); cysteine pairing not given here) [20E2B-2-22-IGFR]", "label 0"],
  ["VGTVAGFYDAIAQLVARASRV [20E2A-3-C7-IGFR]", "label 1"],
  ["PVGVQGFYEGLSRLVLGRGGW [20E22-4-F8-IGFR]", "label 0"],
  ["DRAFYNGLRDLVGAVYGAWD [R20α-4-20C11-IR]", "label 1"],
  ["EAASLGSQDRNFYDWFVRQVV [A6S-2-D11-IR]", "label 1"]
]}
